target: Human Polymorphonuclear Leukocyte Elastase (Homo sapiens, UniProt P08246); assay: Inhibition of human polymorphonuclear leukocyte elastase via hydrolysis of N-t-Boc-alanyl-alanyl-prolyl-alanine-p-nitroanilide (Boc-AAPAN); type: biochemical; settings: 50% inhibition of the enzyme activity 2 minutes after zero time; crude human PMN extract, 0.2 mM Boc-AAPAN, pH 7.5; read-out: ED50 (the source's name) (converted)
Sequence (P08246 30-247 limits assumed): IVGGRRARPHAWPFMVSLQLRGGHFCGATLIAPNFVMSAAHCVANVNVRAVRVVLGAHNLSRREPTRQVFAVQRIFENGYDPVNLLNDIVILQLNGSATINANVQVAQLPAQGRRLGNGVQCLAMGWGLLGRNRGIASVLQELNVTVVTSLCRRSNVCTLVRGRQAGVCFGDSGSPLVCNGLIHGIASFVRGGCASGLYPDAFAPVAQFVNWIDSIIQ
metric: IC50 (µM)
Answers are plain numbers, in µM.

# example entries with known answers
compound	IC50 (µM)
COC(=O)C1=C(COC(C)=O)C[S+]([O-])C2C(OC)C(=O)N12 (stereo not shown)	25.2
CC(=O)OCC1=C(C(=O)OC(C)(C)C)N2C(=O)C(Cl)(Cl)C2[S+]([O-])C1 (stereo not shown)	5.02
CC(=O)OCC1=C(C(=O)OC(C)(C)C)N2C(=O)[C@H](F)[C@H]2[S+]([O-])C1 (stereo partly shown)	5.76

Shifting focus to the compound that follows.
Given the compound CO[C@H]1C(=O)N2C(C(=O)OCc3ccccc3)=C(COC(C)=O)C[S+]([O-])[C@H]12 (stereo partly shown) , what is its reported IC50?
7.63
